src = PubChem BioAssay (Tox21)

- EXPERIMENTAL DETAILS: qHTS assay to identify small molecule antagonists of the constitutive androstane receptor (CAR) signaling pathway - cell viability counter screen (AID 1224837); note: nearly all actives have a fitted effect of over 45% in size
- ASSAY CONTEXT: HepG2-CYP2B6-hCAR viability, CellTiter-Fluor, 23 h, co-treated with 50 nM CITCO; series mostly up to 92.4 µM
- Description: National Center for Advancing Translational Sciences [NCATS] NIH Chemical Genomics Center [NCGC] U.S. Environmental Protection Agency [EPA] National Institutes of Environmental Health Sciences [NIEHS] National Toxicology Program [NTP] […] A double-stable (hCAR and CYP2B6-2.2kb) transfected cell line, derived from human hepatoma (HepG2) cells, was utilized for the duration of the quantitative high-throughput screens. […] The fluorescence intensity in the plates was then measured using a ViewLux plate reader.
Inconclusive results are not listed. Calls of active or inactive are those of the source. Calls come from the whole dose curve; as a rule, active = well fitted cell-killing curve with a large enough effect in the repeat runs; inconclusive = weak or mixed curves, or effect the other way; inactive = flat fitted curve, though single readings scatter.
Outcomes: yes for active, no for inactive

>>> discrete_label("Cc1nc(N(C)C)nc(OC(=O)N(C)C)c1C")
"no"
>>> discrete_label("COC(=O)Cc1ccccc1")
"no"
>>> discrete_label("C[N+]1(CCF)[C@@H]2CC[C@H]1CC(OC(=O)C(O)(c1ccccc1)c1ccccc1)C2 (some centres undefined)")
"no"
>>> discrete_label("CC(C)(C)c1ccc(CCOc2ncnc3ccccc23)cc1")
"no"
>>> discrete_label("O=C(O)CCCOc1ccc(Cl)cc1Cl")
"no"
>>> discrete_label("C=CCOC(=O)C(C)(C)OC(=O)c1cc(-n2c(=O)cc(C(F)(F)F)n(C)c2=O)ccc1Cl")
"no"
>>> discrete_label("O=C(O)c1cc(I)cc(I)c1I")
"no"
>>> discrete_label("CCCCCBr")
"no"
>>> discrete_label("CN1CC[C@]23c4c5ccc(O)c4O[C@H]2[C@@H](O)CC[C@H]3[C@H]1C5")
"no"
>>> discrete_label("CCC1(CCC(C)C)C(=O)NC(=O)NC1=O")
"no"
>>> discrete_label("c1ccc2c(c1)-c1cccc3cccc-2c13")
"no"
>>> discrete_label("OCCSSCCO")
"no"
>>> discrete_label("C[C@]12CC[C@H]3[C@@H](CCC4=CC(=O)CC[C@@H]43)[C@@H]1CC[C@@H]2OC(=O)CCc1ccccc1")
"no"
>>> discrete_label("C[N+](C)(C)CCOC(=O)C(O)(c1ccccc1)c1ccccc1")
"no"
>>> discrete_label("CCCCCCCCP(=O)(O)O")
"no"
>>> discrete_label("CCNC(=O)NC(=O)/C(C#N)=N/OC")
"no"
>>> discrete_label("O=C(O)COc1cc(Cl)c(Cl)cc1Cl")
"no"
>>> discrete_label("CCOC(=O)NC(O)C(Cl)(Cl)Cl (centres undefined)")
"no"
>>> discrete_label("COc1cc(CC#N)cc(OC)c1OC")
"no"
>>> discrete_label("CC1(C)[C@H](C(=O)O[C@H](C#N)c2cccc(Oc3ccccc3)c2)[C@@H]1C=C(Br)Br")
"no"
>>> discrete_label("O=[N+]([O-])/C=C/c1ccccc1")
"yes"
>>> discrete_label("CC(C)CCON=O")
"no"
>>> discrete_label("O=C([O-])c1ccccn1.O=C([O-])c1ccccn1.O=C([O-])c1ccccn1.[Cr+3]")
"no"
>>> discrete_label("CN(C1CCCCC1)C1CCCCC1")
"no"
>>> discrete_label("CC(C)[C@@H](C(=O)O[C@@H](C#N)c1cccc(Oc2ccccc2)c1)c1ccc(Cl)cc1")
"no"
>>> discrete_label("O=C(NC(=O)c1cc(F)c(F)cc1Cl)Nc1cc(F)ccc1N1CCC(C(=O)O)CC1")
"no"
>>> discrete_label("CCc1cnc(C2=NC(C)(C(C)C)C(=O)N2)c(C(=O)O)c1 (centres undefined)")
"no"
>>> discrete_label("C[N+](C)(C)CC1CO1 (centres undefined)")
"no"
>>> discrete_label("CCCCC(CC)COC(=O)c1c(Br)c(Br)c(Br)c(Br)c1C(=O)OCC(CC)CCCC (centres undefined)")
"no"
>>> discrete_label("CCC1(C2=NCCN2)Cc2ccccc2O1 (centres undefined)")
"no"
>>> discrete_label("O=C1NC(=O)C(=O)C(=O)N1")
"no"
>>> discrete_label("Cc1ccc(N)c(C)c1")
"no"
>>> discrete_label("CC(C)(C)NCC(O)c1ccccc1Cl (centres undefined)")
"no"
>>> discrete_label("Nc1ccccc1C(=O)OCCc1ccccc1")
"no"
>>> discrete_label("O=C(O)C(F)(F)C(F)(F)C(F)(F)C(F)(F)C(F)(F)F")
"no"
>>> discrete_label("CC(Cl)C(=O)O (centres undefined)")
"no"
>>> discrete_label("O=C1CC[C@@]2(O)[C@H]3Cc4ccc(O)c5c4[C@@]2(CCN3CC2CC2)[C@H]1O5")
"no"
>>> discrete_label("O=C(N/N=C/c1ccc([N+](=O)[O-])o1)c1cc([N+](=O)[O-])cc([N+](=O)[O-])c1O")
"yes"
>>> discrete_label("C=CCOCC1CO1 (centres undefined)")
"no"
>>> discrete_label("C1CCNCC1")
"no"
>>> discrete_label("CC(=O)OC(c1ccccc1)C(Cl)(Cl)Cl (centres undefined)")
"no"
>>> discrete_label("O=C(Cl)OCCOCCOC(=O)Cl")
"no"
>>> discrete_label("Cc1nnc(-c2ccccc2)c(=O)n1N")
"no"
>>> discrete_label("CCCN(CCC)C(=O)Cc1c(-c2ccc(Cl)cc2)nc2ccc(Cl)cn12")
"no"
>>> discrete_label("NCCc1cc(O)c(O)cc1O")
"no"
>>> discrete_label("O=C(CCl)CCl")
"no"
>>> discrete_label("O=C(Cc1ccccc1)c1ccccc1")
"no"
>>> discrete_label("CON(C)C(=O)Nc1ccc(Cl)cc1")
"no"
>>> discrete_label("C=CC(=O)OCC")
"no"
